# target_or_test_system: Neurogenic locus notch homolog protein 2 (Homo sapiens)
# experiment_summary: Notch2 binders on small-molecule microarrays, primary screen, biochemical, small-molecule microarray, 635 nm fluorescence, stem cell growth factors (AID 1073)
# experimental_context: Notch2 binding, higher = more signal

>  <molecule>
COC(=O)[C@@]1(Cc2ccc(F)cc2)[C@H]2c3cc(C(=O)N(C)C)n(Cc4ccsc4Br)c3C[C@H]2CN1C(=O)c1ccccc1

>  <composite z-score>
1.83

$$$$
>  <molecule>
COc1cccc(C)c1NC(=O)O[C@H]1[C@H](OC(=O)Nc2ccccc2-c2ccccc2)[C@@H](OC(=O)Nc2ccccc2-c2ccccc2)[C@@H](OC)O[C@@H]1CO

>  <composite z-score>
1.61

$$$$
>  <molecule>
COC(=O)[C@H]1N=C(c2ccc(OCCCO)cc2)O[C@H]1c1ccccc1N=[N+]=[N-]

>  <composite z-score>
1.01

$$$$
>  <molecule>
COC(=O)C1=CC(CCCO)=CC(c2ccc(CN3CCCC3)cc2)N(C)C=C1C(=O)OC (centres undefined)

>  <composite z-score>
1.13

$$$$

###

# experiment_summary: inhibitors of hydroxyurea-induced Chk1 phosphorylation, primary screen, imaging, HeLa, phospho-Chk1 nuclear intensity (AID 1187); also: test concentration not given here
# experimental_context: hydroxyurea-induced phospho-Chk1 immunofluorescence imaging, higher = more signal
# label = 1 if z-score >= 0.02 else -1

>  <substance_smiles>
CN(C)CCCCCCNC(=O)[C@@H]1C[C@@H]2C(=O)N[C@@H](CCCC[N+](C)(C)C)C(=O)N2[C@@H]1c1cccc(OCCO)c1

>  <discrete_label>
1

$$$$
>  <substance_smiles>
COc1ccc(C(=O)Nc2cccc(CN3C(=O)[C@]4(O[C@H](CC(=O)N(CCO)Cc5ccccc5)[C@@H]([Si](C)(C)c5ccc(OC)cc5)[C@@H]4C)c4ccccc43)c2)cc1

>  <discrete_label>
-1

$$$$
>  <substance_smiles>
COCCOC(=O)N1C(=O)[C@@]2(c3cc(C#CCNC(N)=O)ccc31)[C@H](C(=O)Nc1nc3ccccc3s1)[C@H]1C(=O)O[C@H](c3ccccc3)[C@H](c3ccccc3)N1[C@@H]2c1ccc(O)cc1

>  <discrete_label>
-1

$$$$
>  <substance_smiles>
CCc1cccc(NC(=O)O[C@H]2[C@H](OC(=O)Nc3ccccc3-c3ccccc3)[C@H](OC(=O)Nc3ccccc3-c3ccccc3)[C@@H](OC)O[C@@H]2CO)c1

>  <discrete_label>
-1

$$$$
>  <substance_smiles>
COc1ccc([Si](C)(C)[C@H]2[C@H](CC(=O)N(CCO)Cc3ccccc3)O[C@@]3(C(=O)N(Cc4ccc(N5C(=O)c6cccc7cccc5c67)cc4)c4ccccc43)[C@@H]2C)cc1

>  <discrete_label>
-1

$$$$
>  <substance_smiles>
COC(=O)[C@]1(Cc2ccccc2CN=[N+]=[N-])N=C(c2ccc(OCCCO)cc2)O[C@@H]1c1ccccc1N=[N+]=[N-]

>  <discrete_label>
-1

$$$$

###

# experiment_summary: E. coli DRC41 culture turbidity changes, primary screen, E. coli filamentation inducer project, strain DRC41, OD650, 48 h (AID 1152);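 also: E. coli MC1000 strain DRC41 lacking acrAB efflux pump and sulA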
# experimental_context: E. coli DRC41 (acrAB sulA), higher = more signal, called active from +8 up or from −8 down
Classification field: true (1) = z-score at or over -0.7; false (0) = z-score under -0.7.

>  <compound>
C=C[C@@H](CO)NS(=O)(=O)c1ccc(Br)cc1

>  <discrete_label>
true (1)

$$$$
>  <compound>
CN1C(=O)C2C=CC(C(O)c3ccc(I)cc3)N(N(c3ccccc3)c3ccccc3)C2C1=O (stereo not drawn)

>  <discrete_label>
false (0)

$$$$
>  <compound>
CC(C)C[C@H]1NC(=O)CNC(=O)[C@@]23C(=O)N[C@@H](Cc4ccccc4)C2[C@H](C)[C@@]2(C)O[C@H]2C3/C=C/C/C=C\CNC1=O (stereo partly drawn)

>  <discrete_label>
true (1)

$$$$
>  <compound>
NCCCCCCNC(=O)[C@@H]1C[C@@H]2C(=O)NCC(=O)N2[C@@H]1c1cccc(OCCO)c1

>  <discrete_label>
true (1)

$$$$
>  <compound>
C=C(C(=O)CC[C@@H](OC(=O)c1cccnc1)c1cccc(OCCO)c1)C(C)C

>  <discrete_label>
true (1)

$$$$
>  <compound>
COC(=O)[C@@]1(Cc2ccc(F)cc2)[C@H]2c3cc(C(=O)N(C)C)n(Cc4cccc5ccccc45)c3C[C@H]2CN1C(=O)c1ccccc1

>  <discrete_label>
false (0)

$$$$
>  <compound>
CC(C)(C)OC(=O)CC[C@]1(C(=O)N2CCOCC2)COC(c2ccc(OCCCO)cc2)=N1

>  <discrete_label>
true (1)

$$$$
